Assay System: Factor D (Homo sapiens (Human))
Protocol Text: biochemical
Format: biochemical
Conditions: read-out: IC50
pIC50: −log10 of the molar value.
Short version: pIC50 at least 7 is true, less is false.

Molecule	Cat
NC[C@@]1(F)C[C@@H](C(=O)NCc2c(F)ccc(Cl)c2F)N(C(=O)Nc2cn(C(N)=O)c3ccccc23)C1 [Example 411]	true
CO[C@H]1[C@@H](C(=O)NCc2cccc(Cl)c2F)N(C(=O)Cn2nc(C(N)=O)c3cc(C)ncc32)C[C@@H]1F [Example 661]	true
CC(C)c1cccc(NC(=O)[C@@H]2C[C@H]3C[C@H]3N2C(=O)Nc2cn(C(N)=O)c3ccccc23)c1 [Example 285]	true
CN(C)[C@@H]1CN(C(=O)Nc2cn(C(N)=O)c3ccccc23)[C@H](C(=O)NCc2cccc(Cl)c2F)[C@H]1F [Example 189]	false
CN(C)[C@H]1C[C@@H](C(=O)NCc2cccc(Cl)c2F)N(C(=O)Nc2cn(C(N)=O)c3ccccc23)C1 [Example 427]	false

---

Assay System: Factor D (Homo sapiens (Human))
Protocol Text: biochemical
Format: biochemical
Conditions: read-out: IC50
IC50 values for the molecules below.
Endpoint Name: IC50

Molecule	Endpoint Name	Result
CC(=O)c1nc(CC(=O)N2[C@@H]3C[C@@H]3C[C@H]2C(=O)N[C@H](CC#N)c2cccc(Cl)c2F)n2ccccc12 [Example 679]	IC50	134 nM
CNC(=O)n1cc(NC(=O)N2[C@@H]3C[C@@H]3C[C@H]2C(=O)N[C@H](CO)c2cccc(Cl)c2F)c2ccccc21 [Example 287]	IC50	112 nM
C[C@@]1(F)C[C@@H](C(=O)NCc2cccc(Cl)c2F)N(C(=O)Cc2cn(C(N)=O)c3ccc(OCCO)cc23)C1 [Example 459]	IC50	211 nM
CO[C@H]1[C@@H](C(=O)Nc2cccc(Br)c2F)N(C(=O)Cn2nc(C(N)=O)c3ccccc32)C[C@@H]1F [Example 755]	IC50	17 nM
CC(=O)c1nn(CC(=O)N2[C@@H]3C[C@@H]3C[C@H]2C(=O)N[C@H](CCN(C)C)c2cccc(Cl)c2F)c2ccccc12 [Example 642]	IC50	15 nM
Cc1cc2c(C(N)=O)nn(CC(=O)N3[C@H](C(=O)Nc4cccc(Br)n4)C[C@@]4(C)C[C@@H]34)c2cn1 [Example 745]	IC50	5 nM

---

Assay System: Factor D (Homo sapiens (Human), UniProt P00746)
Sequence (P00746 26-253): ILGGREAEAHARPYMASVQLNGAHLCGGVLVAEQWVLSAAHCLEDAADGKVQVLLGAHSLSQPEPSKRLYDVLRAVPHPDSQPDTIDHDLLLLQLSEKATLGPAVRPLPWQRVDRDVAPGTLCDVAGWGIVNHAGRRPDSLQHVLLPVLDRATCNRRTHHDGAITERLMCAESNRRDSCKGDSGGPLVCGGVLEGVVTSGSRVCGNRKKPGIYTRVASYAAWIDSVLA
Protocol Text: biochemical
Format: biochemical
Conditions: read-out: IC50
pIC50: −log10 of the molar value.
Short version: pIC50 at least 6 is MET, less is NOT MET.

Compound	Cat
COC(=O)c1ccc(NC(=O)[C@@H]2C[C@@H](F)CN2C(=O)Nc2cn(C(N)=O)c3ccccc23)cc1Br	MET
NC(=O)n1cc(NC(=O)N2CC[C@H](O)[C@H]2C(=O)NCc2cccc(Cl)c2)c2ccccc21	NOT MET
CC(=O)c1cn(CC(=O)N2C[C@H]3C[C@H]3[C@H]2C(=O)NCc2cccc(Cl)c2F)c2ccncc12	MET
NC(=O)n1cc(NC(=O)N2C[C@@H](N)C[C@H]2C(=O)NCc2ccc(-c3ccc(Cl)s3)s2)c2ccccc21	NOT MET
CC(=O)c1cn(CC(=O)N2[C@@H]3C[C@@H]3C[C@H]2C(=O)NCc2cccc(Cl)c2F)c2cc(C(=N)N(C)C)ccc12	MET
CC(=O)c1cn(CC(=O)N2C[C@H](F)C[C@H]2C(=O)NCc2cccc(Cl)c2F)c2cc(C(=O)O)ccc12	MET
NC(=O)n1cc(NC(=O)N2[C@@H]3C[C@@H]3C[C@H]2C(=O)NCc2cccc(Cl)c2F)c2ccc(CCO)cc21	MET

---

Assay System: Factor D (Homo sapiens (Human))
Protocol Text: biochemical
Format: biochemical
Conditions: read-out: IC50
log10 of IC50 values for the compounds below.
Endpoint Name: log10 of IC50 (log10 of the value in nM)

Compound	log10 of IC50
NC(=O)n1cc(NC(=O)N2CC3O[C@@H]3[C@H]2C(=O)NCc2cccc(Cl)c2F)c2ccccc21 (stereo partly shown) [Example 146]	0.95
CO[C@H]1[C@@H](C(=O)NCc2cccc(Cl)c2F)N(C(=O)Cn2nc(C(N)=O)c3ccncc32)C[C@@H]1F [Example 662]	1.11
NC(=O)n1cc(NC(=O)N2C3CC3C[C@H]2C(=O)NCc2cccc(Cl)c2F)c2ccccc21 (stereo partly shown) [Example 166]	0.48
N#Cc1cccc(CNC(=O)[C@@H]2C[C@H](N)CN2C(=O)Nc2cn(C(N)=O)c3ccccc23)c1 [Example 33]	4.38
NC(=O)n1cc(NC(=O)N2CCCC[C@H]2C(=O)NCc2cccc(Cl)c2F)c2ccccc21 [Example 220]	2.37
NC(=O)n1cc(NC(=O)N2C3CC3C[C@H]2C(=O)Nc2cccc(Cl)c2F)c2ccccc21 (stereo partly shown) [Example 176]	1.48
Cc1cccc(CNC(=O)[C@@H]2C[C@H](N)CN2C(=O)Nc2cn(C(N)=O)c3ccccc23)c1 [Example 30]	3.43
NC(=O)n1cc(NC(=O)N2C[C@@H]3C[C@@H]3[C@H]2C(=O)N[C@H](CO)c2cccc(Cl)c2F)c2ccccc21 [Example 207]	2.51
CC(=O)n1cc(NC(=O)N2[C@@H]3C[C@@H]3C[C@H]2C(=O)N[C@H](CO)c2cccc(Cl)c2F)c2ccccc21 [Example 129]	0.60
NC(=O)n1cc(NC(=O)N2C[C@@H](N)C[C@H]2C(=O)NCc2cccc(-c3ccccc3)c2)c2ccccc21 [Example 39]	3.02
NC(=O)n1cc(NC(=O)N2C[C@@H](N)C[C@H]2C(=O)NCCc2ccccc2F)c2ccccc21 [Example 88]	3.83
NC(=O)n1cc(NC(=O)N2C[C@](F)(CO)C[C@H]2C(=O)NCc2cccc(Cl)c2F)c2ccccc21 [Example 356]	2.68
COC(=O)COc1ccc2c(c1)c(NC(=O)N1C[C@](C)(F)C[C@H]1C(=O)NCc1cccc(Cl)c1F)cn2C(N)=O [Example 318]	0.48
NC(=O)c1cn(CC(=O)N2C[C@H](F)C[C@H]2C(=O)NCc2cccc(Cl)c2F)c2cc(Cl)ccc12 [Example 491]	1.45
NC[C@]1(F)C[C@@H](C(=O)NCc2cccc(Cl)c2F)N(C(=O)Nc2cn(C(N)=O)c3ccccc23)C1 [Example 408]	3.15
Cc1cnc(CNC(=O)[C@@H]2C[C@H](N)CN2C(=O)Nc2cn(C(N)=O)c3ccccc23)s1 [Example 65]	4.12
CC(=O)n1cc(NC(=O)N2CCC[C@H]2C(=O)Nc2cccc(OC(F)(F)F)c2)c2ccccc21 [Example 271]	2.80
NC(=O)n1cc(NC(=O)N2C[C@H](F)C[C@H]2C(=O)Nc2ncccc2F)c2ccccc21 [Example 327]	3.23
CC(=O)c1cn(CC(=O)N2C[C@H](F)C[C@H]2C(=O)NCc2cccc(Cl)c2F)c2cc(-c3nnn[nH]3)ccc12 [Example 617]	1.45
NC(=O)n1cc(NC(=O)N2CC[C@@H](N)[C@H]2C(=O)NCc2cccc(Cl)c2F)c2ccccc21 [Example 417]	1.60
CC(=O)c1cn(CC(=O)N2[C@@H]3C[C@@H]3C[C@H]2C(=O)NCc2cc(C(=O)O)cc(Cl)c2F)c2ccccc12 [Example 606]	1.15
NC[C@@]1(F)C[C@@H](C(=O)N[C@H](CF)c2cccc(Br)c2)N(C(=O)Nc2cn(C(N)=O)c3ccccc23)C1 [Example 413]	2.00
NC(=O)n1cc(NC(=O)N2C[C@H](F)C[C@H]2C(=O)N[C@H](CO)c2ccccc2)c2ccccc21 [Example 13]	2.14
NC(=O)n1cc(NC(=O)N2C[C@H](F)C[C@H]2C(=O)NCc2cccc(O)c2)c2ccccc21 [Example 9]	2.40
CC(=O)c1cn(CC(=O)N2[C@@H]3C[C@@H]3C[C@H]2C(=O)NCc2cccc(Cl)c2F)c2cc(O)ccc12 [Example 584]	1.58
Cc1nccc2c(C(N)=O)nn(CC(=O)N3[C@@H]4C[C@@H]4C[C@H]3C(=O)Nc3cccc(Br)n3)c12 [Example 747]	1.11
NC(=O)n1cc(NC(=O)N2C[C@H](F)C[C@H]2CNS(=O)(=O)c2cccc(F)c2)c2ccccc21 [Example 106]	2.85
CC(=O)c1cn(CC(=O)N2C[C@H](F)C[C@H]2C(=O)NCc2cccc(Cl)c2F)c2cnccc12 [Example 552]	1.60

---

IC50 values for the compounds below.
Assay System: Factor D (Homo sapiens (Human), UniProt P00746)
Protocol Text: biochemical
Type: biochemical
Conditions: read-out: IC50
Counter-ions that a name gives are not always drawn.

Compound	Measurement Unit	IC50
NC(=O)n1cc(NC(=O)N2C[C@@H](N)C[C@H]2C(=O)NC2(c3ccccc3)CC2)c2ccccc21	nM	7000
NC(=O)c1nn(CC(=O)N2[C@@H]3C[C@@H]3C[C@H]2C(=O)Nc2cccc(-c3ncccc3Cl)c2F)c2cnccc12	nM	10
NC(=O)n1cc(NC(=O)N2C[C@@H](N)C[C@H]2C(=O)NCCc2cccc(F)c2)c2ccccc21	nM	7700
NC(=O)n1cc(NC(=O)N2C[C@@H](N)C[C@H]2C(=O)NCc2ccc(Cl)c(Cl)c2)c2ccccc21	nM	7100
C[C@@H]1CCN(C(=O)Nc2cn(C(N)=O)c3ccccc23)[C@@H]1C(=O)NCc1cccc(Cl)c1F	nM	100
CC(=O)c1cn(CC(=O)N2[C@@H]3CC[C@@H](C3)[C@H]2C(=O)NCc2cccc(Cl)c2F)c2ccccc12	nM	411
COC(=O)c1ccc2c(C(C)=O)nn(CC(=O)N3[C@@H]4C[C@@H]4C[C@H]3C(=O)Nc3cccc(OC(F)(F)F)c3F)c2c1	nM	52
CC(=O)c1cn(CC(=O)N2[C@@H]3C[C@@H]3C[C@H]2C(=O)NCc2cccc(Cl)c2F)c2c(C(=O)O)cccc12	nM	110
NC(=O)n1cc(NC(=O)N2C[C@](F)(CN3CCOCC3)C[C@H]2C(=O)NCc2cccc(Cl)c2F)c2ccccc21	nM	1900
NC(=O)c1nn(CC(=O)N2CCCC[C@H]2C(=O)NCc2cccc(Cl)c2F)c2cnccc12	nM	358
CO[C@H]1[C@@H](C(=O)Nc2cccc(OC(F)(F)F)c2F)N(C(=O)Cn2nc(C(N)=O)c3ccncc32)C[C@@H]1F [Example 629, trifluoroacetate]	nM	17
NC(=O)n1cc(NC(=O)N2[C@@H]3C[C@@H]3C[C@H]2C(=O)NCc2cccnc2)c2ccccc21	nM	417
CC(=O)c1cn(CC(=O)N2C[C@H](F)C[C@H]2C(=O)Nc2cccc(OC(F)(F)F)c2F)c2ccccc12	nM	95
NC(=O)n1cc(NC(=O)N2C[C@H](F)C[C@H]2C(=O)Nc2cccc(Br)n2)c2ccccc21	nM	4
C[C@@]12C[C@@H](C(=O)NCc3cccc(Cl)c3F)N(C(=O)Cn3nc(C(N)=O)c4ccncc43)[C@@H]1C2	nM	23
COc1ccc2c(c1)c(NC(=O)N1C[C@H](F)C[C@H]1C(=O)NCc1cccc(Cl)c1F)cn2C(N)=O	nM	3
CC(=O)c1nc(CC(=O)N2[C@@H]3C[C@@H]3C[C@H]2C(=O)N[C@H](CO)c2cccc(Cl)c2F)n2ccccc12	nM	79
NC(=O)n1cc(NC(=O)N2CCC[C@H]2C(=O)Nc2cccc(S(N)(=O)=O)c2)c2ccccc21	nM	850
NC(=O)c1nn(CC(=O)N2[C@@H]3C[C@@H]3C[C@H]2C(=O)Nc2cccc(C3CC3)c2F)c2ccccc12	nM	75
CO[C@H]1[C@@H](C(=O)NC2(c3cccc(Cl)c3F)CC2)N(C(=O)Cn2nc(C(C)=O)c3ccncc32)C[C@@H]1F	nM	11
C=CCOc1ccc2c(c1)c(NC(=O)N1CCC[C@H]1C(=O)Nc1cccc(OC(F)(F)F)c1)cn2C(N)=O	nM	550
NC(=O)n1cc(NC(=O)N2C[C@H](F)C[C@H]2C(=O)NCc2cncc(F)c2)c2ccccc21	nM	386
COc1ccc(CNC(=O)[C@@H]2C[C@H](N)CN2C(=O)Nc2cn(C(N)=O)c3ccccc23)cc1Cl	nM	1850
NC(=O)c1cn(CC(=O)N2C[C@H](F)C[C@H]2C(=O)NCc2cccc(Cl)c2F)c2cc(Br)c(F)cc12	nM	89
CN(C)C[C@@H](NC(=O)[C@@H]1C[C@@H](F)CN1C(=O)Nc1cn(C(N)=O)c2ccccc12)c1cccc(Cl)c1F	nM	119
CC(=O)c1nn(CC(=O)N2[C@@H]3C[C@@H]3C[C@H]2C(=O)Nc2cccc(OC(F)(F)F)c2F)c2ncccc12	nM	71
NC(=O)c1nn(CC(=O)N2[C@@H]3C[C@@H]3C[C@H]2C(=O)Nc2cccc(-c3ccccc3F)c2F)c2cnccc12	nM	27
